Classification field: enter Met for logP values not below -0.6, Not met for values below it.

{"smiles string": "Cn1c(=O)[nH]c2[nH]c(=O)n(C)c2c1=O", "class assignment": "Met"}
{"smiles string": "CN(C=O)c1c(N)n(C)c(=O)[nH]c1=O", "class assignment": "Not met"}
{"smiles string": "Cn1cnc2[nH]c(=O)[nH]c(=O)c21", "class assignment": "Not met"}
{"smiles string": "Cn1c(=O)[nH]c2[nH]c(=O)[nH]c(=O)c21", "class assignment": "Not met"}
{"smiles string": "Cn1c(=O)[nH]c2[nH]c(=O)[nH]c2c1=O", "class assignment": "Met"}

Reported logP reaches at least -0.6 for Cn1c(=O)c2[nH]c(=O)[nH]c2n(C)c1=O ?
Met

Reported logP at or above -0.6? Cn1c(=O)[nH]c2nc[nH]c2c1=O
Met

Check if logP >= -0.6 (inclusive). Item: Cn1c(=O)[nH]c(=O)c2[nH]cnc21
Met

Decide: logP of Cn1c(=O)[nH]c(=O)c2[nH]c(=O)[nH]c21 >= -0.6?
Not met

Decide: is the reported value of logP for Cn1c(N)c(NC=O)c(=O)n(C)c1=O equal to or greater than -0.6?
Not met

Evaluate Cn1c(=O)c2c([nH]c(=O)n2C)n(C)c1=O : logP at minimum -0.6?
Met

Check this compound for logP at or above -0.6: CN(C=O)c1c(N)n(C)c(=O)n(C)c1=O
Not met

Hi team, for CN(C=O)c1c(N)[nH]c(=O)n(C)c1=O , is the recorded logP at or above -0.6?
Not met

Can Cn1c(=O)[nH]c(=O)c2c1[nH]c(=O)n2C be said to have logP at or above -0.6?
Not met

Origin of the recorded values: the OPERA property sets (Mansouri et al. 2018)
